test system: Bacillus subtilis; assay: Antibacterial activity against aminoglycosides-susceptible Bacillus subtilis by double microdilution method; format: functional
ASSAY_METRIC: log10 of MIC (log10 of the value in µg/mL)
Friendly reminder: values = log10 of MIC, unit µg/mL.

Req: What does the data say about its log10 of MIC? Entry: NC[C@H]1O[C@H](O[C@H]2[C@H](O)[C@@H](O[C@H]3O[C@H](CO)[C@@H](O)[C@H](N)[C@H]3O)[C@H](NC(=O)CCc3cn(CC(O)CN4CCN(c5cc6c(cc5F)c(=O)c(C(=O)O)cn6C5CC5)CC4)nn3)C[C@@H]2N)[C@H](O)[C@@H](O)[C@@H]1O (some centres undefined)
Resp: 0.95

Req: What does the data say about its log10 of MIC? Entry: NC[C@H]1O[C@H](O[C@H]2[C@H](O)[C@@H](O[C@H]3O[C@H](CO)[C@@H](O)[C@H](N)[C@H]3O)[C@H](NCc3cn(CC(O)CN4CCN(c5cc6c(cc5F)c(=O)c(C(=O)O)cn6C5CC5)CC4)nn3)C[C@@H]2N)[C@H](O)[C@@H](O)[C@@H]1O (some centres undefined)
Resp: 0.18

Req: What does the data say about its log10 of MIC? Entry: NC[C@H]1O[C@H](O[C@H]2[C@H](O)[C@@H](O[C@H]3O[C@H](CO)[C@@H](O)[C@H](N)[C@H]3O)[C@H](NCc3cn(CCN4CCN(c5cc6c(cc5F)c(=O)c(C(=O)O)cn6C5CC5)CC4)nn3)C[C@@H]2N)[C@H](O)[C@@H](O)[C@@H]1O
Resp: 0.18

Req: What does the data say about its log10 of MIC? Entry: NC[C@H]1O[C@H](O[C@H]2[C@H](O)[C@@H](O[C@H]3O[C@H](CO)[C@@H](O)[C@H](N)[C@H]3O)[C@H](NC(=O)CCc3cn(CCN4CCN(c5cc6c(cc5F)c(=O)c(C(=O)O)cn6C5CC5)CC4)nn3)C[C@@H]2N)[C@H](O)[C@@H](O)[C@@H]1O
Resp: 0.78

Req: What does the data say about its log10 of MIC? Entry: NC[C@H]1O[C@H](O[C@H]2[C@H](O)[C@@H](O[C@H]3O[C@H](CO)[C@@H](O)[C@H](N)[C@H]3O)[C@H](NC(=O)CCCc3cn(Cc4ccc(CN5CCN(c6cc7c(cc6F)c(=O)c(C(=O)O)cn7C6CC6)CC5)cc4)nn3)C[C@@H]2N)[C@H](O)[C@@H](O)[C@@H]1O
Resp: 0.48

Req: What does the data say about its log10 of MIC? Entry: O=C(O)c1cn(C2CC2)c2cc(N3CCNCC3)c(F)cc2c1=O [CIPROFLOXACIN]
Resp: -1.70

Req: What does the data say about its log10 of MIC? Entry: NC[C@H]1O[C@H](O[C@H]2[C@H](O)[C@@H](O[C@H]3O[C@H](CO)[C@@H](O)[C@H](N)[C@H]3O)[C@H](NCc3cn(Cc4ccc(CN5CCN(c6cc7c(cc6F)c(=O)c(C(=O)O)cn7C6CC6)CC5)cc4)nn3)C[C@@H]2N)[C@H](O)[C@@H](O)[C@@H]1O
Resp: 0.48

Req: What does the data say about its log10 of MIC? Entry: NC[C@H]1O[C@H](O[C@H]2[C@H](O)[C@@H](O[C@H]3O[C@H](CO)[C@@H](O)[C@H](N)[C@H]3O)[C@H](NC(=O)CCc3cn(CCOCCN4CCN(c5cc6c(cc5F)c(=O)c(C(=O)O)cn6C5CC5)CC4)nn3)C[C@@H]2N)[C@H](O)[C@@H](O)[C@@H]1O
Resp: 0.95

Req: What does the data say about its log10 of MIC? Entry: NC[C@H]1O[C@H](O[C@H]2[C@H](O)[C@@H](O[C@H]3O[C@H](CO)[C@@H](O)[C@H](N)[C@H]3O)[C@H](NC(=O)CCc3cn(Cc4cccc(CN5CCN(c6cc7c(cc6F)c(=O)c(C(=O)O)cn7C6CC6)CC5)c4)nn3)C[C@@H]2N)[C@H](O)[C@@H](O)[C@@H]1O
Resp: 0.95

Req: What does the data say about its log10 of MIC? Entry: NC[C@H]1O[C@H](O[C@H]2[C@H](O)[C@@H](O[C@H]3O[C@H](CO)[C@@H](O)[C@H](N)[C@H]3O)[C@H](NC(=O)CCCc3cn(CC(O)CN4CCN(c5cc6c(cc5F)c(=O)c(C(=O)O)cn6C5CC5)CC4)nn3)C[C@@H]2N)[C@H](O)[C@@H](O)[C@@H]1O (some centres undefined)
Resp: 0.18

Req: What does the data say about its log10 of MIC? Entry: NC[C@H]1O[C@H](O[C@H]2[C@H](O)[C@@H](O[C@H]3O[C@H](CO)[C@@H](O)[C@H](N)[C@H]3O)[C@H](NCc3cn(CCCCCCN4CCN(c5cc6c(cc5F)c(=O)c(C(=O)O)cn6C5CC5)CC4)nn3)C[C@@H]2N)[C@H](O)[C@@H](O)[C@@H]1O
Resp: 0.78

Req: What does the data say about its log10 of MIC? Entry: NC[C@H]1O[C@H](O[C@H]2[C@H](O)[C@@H](O[C@H]3O[C@H](CO)[C@@H](O)[C@H](N)[C@H]3O)[C@H](NC(=O)CCc3cn(Cc4ccc(CN5CCN(c6cc7c(cc6F)c(=O)c(C(=O)O)cn7C6CC6)CC5)cc4)nn3)C[C@@H]2N)[C@H](O)[C@@H](O)[C@@H]1O
Resp: 0.78

Req: What does the data say about its log10 of MIC? Entry: NC[C@H]1O[C@H](O[C@H]2[C@H](O)[C@@H](O[C@H]3O[C@H](CO)[C@@H](O)[C@H](N)[C@H]3O)[C@H](NCc3cn(Cc4cccc(CN5CCN(c6cc7c(cc6F)c(=O)c(C(=O)O)cn7C6CC6)CC5)c4)nn3)C[C@@H]2N)[C@H](O)[C@@H](O)[C@@H]1O
Resp: 1.08

Req: What does the data say about its log10 of MIC? Entry: NC[C@H]1O[C@H](O[C@H]2[C@H](O)[C@@H](O[C@H]3O[C@H](CO)[C@@H](O)[C@H](N)[C@H]3O)[C@H](N)C[C@@H]2N)[C@H](O)[C@@H](O)[C@@H]1O [KANAMYCIN]
Resp: 0.18
